The reported measurements were obtained from ChEMBL document CHEMBL1201862.

System: 786-0
Test: NCI tumour cell line growth inhibition, 48 h
Active and inactive are the calls of the source. No stated cut-off is given here; in the data, active = GI50 up to about 1.1 µM and inactive = higher.

molecule: O=c1c(O)c(-c2ccccc2)oc2c(CP(=O)(O)O)cccc12
GI50: > 100 µM (inactive)

molecule: CC(=O)CC(=O)Nc1ccccc1[N+](=O)[O-]
GI50: > 100 µM (inactive)

molecule: CCOC(=O)c1cccc(/N=N/Nc2cccc(C(=O)OCC)c2)c1
GI50: 17.9 µM (inactive)

molecule: Cn1c(=O)[nH]c2[nH]c3ccccc3c2c1=O
GI50: > 100 µM (inactive)

====

System: SF-295
Test: NCI tumour cell line growth inhibition, 48 h
Activity calls are given as the source filed them. Rule as the data show it: active = GI50 up to about 1.1 µM and inactive = higher.
Each entry below carries its recorded GI50.
endpoint: GI50

compound: CCOc1cccc2cccnc12
value: > 100 µM (inactive)

compound: CN1C/C(=C\c2ccco2)c2nc(N)nc(-c3ccco3)c2C1
value: > 100 µM (inactive)

compound: OC1NC2Nc3ccccc3NC2NC1O (stereo unspecified)
value: > 100 µM (inactive)

compound: O=C1OI(C#Cc2ccccc2)c2ccccc21
value: 13.5 µM (inactive)

compound: Cc1nnc2sc(Cl)nn12
value: 17.7 µM (inactive)

compound: OC(c1ccccc1)(c1ccccc1)c1ccncc1
value: > 100 µM (inactive)

compound: Cc1ccc([S+]([O-])C[C@](NC(=O)OCc2ccccc2)(Sc2ccccc2)C(F)F)cc1 (stereo partly specified)
value: 16.8 µM (inactive)

compound: O=C(O)C(CS)Nc1c2ccccc2[n+]([O-])c2ccccc12 (stereo unspecified)
value: > 100 µM (inactive)

compound: Oc1c(N2CCCCC2)cc(-c2cc(N3CCCCC3)c(O)c3ccccc23)c2ccccc12
value: 41.2 µM (inactive)

compound: COc1cc2c(Cc3cc(OCc4ccccc4)ccc3N)nccc2c(OC)c1OC
value: > 10 µM (inactive)

compound: COc1ccc2[nH]c3c(c2c1)COc1ccccc1C3=O
value: > 100 µM (inactive)

compound: O=C(NNCC(O)COc1ccccc1)c1ccccc1 (stereo unspecified)
value: > 100 µM (inactive)

compound: Cn1c(=O)[nH]c2c(c1=O)C(=O)CN2
value: > 100 µM (inactive)

compound: COc1nc2c(c(=O)n1C)N=C(c1ccc(Cl)cc1)CC(c1ccccc1)N2 (stereo unspecified)
value: 18.8 µM (inactive)

compound: CCOC(=O)C1Cc2[nH]c3ccccc3c2C(C)C1C (stereo unspecified)
value: 19.4 µM (inactive)

compound: Cc1ccc(/C=C2\CCCC(CN3CCCCC3)C2=O)cc1 (stereo unspecified)
value: 17.2 µM (inactive)

compound: O=C1CCCC/C1=C\c1ccc(Br)cc1
value: 21.1 µM (inactive)

compound: CCN(CC)c1c(C(C)(C)C)c(=O)n2ccsc2c1OC(C)=O
value: 17.1 µM (inactive)

compound: CCOC(=O)c1c(-c2ccccc2)c(OC)cn1C
value: > 10 µM (inactive)

compound: Sc1nnc(-c2ccccc2)n1/N=C\c1ccc(-c2ccc(Cl)cc2)o1
value: > 100 µM (inactive)

compound: [O-][S+]1c2ccccc2NC(c2ccc3ccccc3c2)CC1c1ccccc1 (stereo unspecified)
value: 19.1 µM (inactive)
